- target_entity: human α2β2γ1 complex (WT) (Homo sapiens, UniProt P54619+P54646)
- Construct: made in house; host or cells: Escherichia coli
- Sequence (P54619 whole entry, one chain of several): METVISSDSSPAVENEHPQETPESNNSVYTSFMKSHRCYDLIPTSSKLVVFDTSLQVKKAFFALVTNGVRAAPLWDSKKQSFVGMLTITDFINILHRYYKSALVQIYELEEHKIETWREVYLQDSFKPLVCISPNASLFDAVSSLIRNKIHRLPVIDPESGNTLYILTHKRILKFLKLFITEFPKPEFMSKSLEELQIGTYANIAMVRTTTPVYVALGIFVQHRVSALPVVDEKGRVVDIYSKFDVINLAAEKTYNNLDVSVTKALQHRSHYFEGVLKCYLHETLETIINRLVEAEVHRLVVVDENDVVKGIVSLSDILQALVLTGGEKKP
- assay_method_text: Allosteric activation of WT human α2β2γ1 AMPK complex by AMP and ADP
- Assay type: biochemical
- condition_summary: 0.2 mM ATP
// values below are reported pIC50
The meaning of pIC50 here: minus log10 of the concentration in molar units.

smiles_record: Nc1ncnc2c1ncn2[C@@H]1O[C@H](COP(=O)(O)OP(=O)(O)O)[C@@H](O)[C@H]1O
pIC50: 2.59

Then there is this compound:
Provide measured pIC50 value, entry: Nc1ncnc2c1ncn2[C@@H]1O[C@H](COP(=O)(O)O)[C@@H](O)[C@H]1O
2.59

###

- target_entity: human α2β2γ1 complex, CBS1 mutant (L129D/V130D) (Homo sapiens, UniProt P54619+P54646, L129D/V130D)
- Construct: made in house; host or cells: Escherichia coli
- Sequence (P54619 whole entry L129D/V130D): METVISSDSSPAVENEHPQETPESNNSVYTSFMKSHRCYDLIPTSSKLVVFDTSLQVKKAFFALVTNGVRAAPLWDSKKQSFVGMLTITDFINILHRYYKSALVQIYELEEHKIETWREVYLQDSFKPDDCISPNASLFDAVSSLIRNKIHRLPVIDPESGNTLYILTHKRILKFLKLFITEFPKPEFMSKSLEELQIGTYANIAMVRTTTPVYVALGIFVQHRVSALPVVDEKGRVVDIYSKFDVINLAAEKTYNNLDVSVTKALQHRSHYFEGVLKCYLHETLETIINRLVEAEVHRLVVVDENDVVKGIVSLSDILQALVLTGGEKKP
- Sequence (P54646 whole entry): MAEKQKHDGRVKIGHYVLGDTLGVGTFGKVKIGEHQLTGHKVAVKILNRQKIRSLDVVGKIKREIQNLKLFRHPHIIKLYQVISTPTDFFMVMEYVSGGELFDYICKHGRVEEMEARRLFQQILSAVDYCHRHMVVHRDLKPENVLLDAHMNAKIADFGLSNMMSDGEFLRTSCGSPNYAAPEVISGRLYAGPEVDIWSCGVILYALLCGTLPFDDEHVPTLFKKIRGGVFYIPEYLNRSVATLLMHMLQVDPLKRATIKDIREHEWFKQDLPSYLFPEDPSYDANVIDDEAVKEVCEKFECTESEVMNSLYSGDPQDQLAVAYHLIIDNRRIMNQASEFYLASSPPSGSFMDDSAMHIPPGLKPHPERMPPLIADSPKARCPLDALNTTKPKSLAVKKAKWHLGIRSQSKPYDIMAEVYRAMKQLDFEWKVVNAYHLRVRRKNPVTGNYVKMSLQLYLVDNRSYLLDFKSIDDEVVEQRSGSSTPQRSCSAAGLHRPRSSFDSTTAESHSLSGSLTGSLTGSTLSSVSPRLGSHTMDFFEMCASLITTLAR
- Sequence (O43741 whole entry partner): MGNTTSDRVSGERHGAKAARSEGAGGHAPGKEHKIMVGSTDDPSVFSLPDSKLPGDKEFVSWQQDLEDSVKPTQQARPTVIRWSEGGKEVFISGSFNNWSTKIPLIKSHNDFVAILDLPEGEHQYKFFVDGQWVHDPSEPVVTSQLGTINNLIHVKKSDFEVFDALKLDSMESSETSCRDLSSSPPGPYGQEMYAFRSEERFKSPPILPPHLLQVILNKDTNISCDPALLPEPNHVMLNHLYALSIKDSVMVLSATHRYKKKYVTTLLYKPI
- assay_method_text: Allosteric activation of CBS1 mutant human α2β2γ1 AMPK complex
- Format: biochemical
- condition_summary: 0.2 mM ATP
endpoint: IC50
Please give the number followed by its unit.

Fill in reported IC50 for this entry: Nc1ncnc2c1ncn2[C@@H]1O[C@H](COP(=O)(O)OP(=O)(O)O)[C@@H](O)[C@H]1O [ADP]
1000 µM

Supply reported IC50 belonging to this compound: Nc1ncnc2c1ncn2[C@@H]1O[C@H](COP(=O)(O)O)[C@@H](O)[C@H]1O [AMP]
3400 µM

###

- target_entity: GST-tagged human α2 kinase domain (Homo sapiens)
- Construct: Human GST-tagged α2 kinase domain (1–310); made in house
- assay_method_text: Inhibition of GST:α2-kinase domain fusion by AMP or ADP
- Type: biochemical
- condition_summary: α2 kinase domain, 5.0 mM ATP
endpoint: IC50 (mM)
Express the result in mM but write the number alone.

Report IC50, nothing else, for this molecule: Nc1ncnc2c1ncn2[C@@H]1O[C@H](COP(=O)(O)OP(=O)(O)O)[C@@H](O)[C@H]1O [ADP]
3.5

###

- target_entity: GST-tagged human α2 kinase domain (Homo sapiens)
- Construct: Human GST-tagged α2 kinase domain (1–310); made in house
- assay_method_text: Inhibition of GST:α2-kinase domain fusion by AMP or ADP
- Format: biochemical
- condition_summary: α2 kinase domain, 0.2 mM ATP
The compounds listed here are annotated with their IC50.
Give just the number in mM; leave the unit off.

smiles_record: Nc1ncnc2c1ncn2[C@@H]1O[C@H](COP(=O)(O)OP(=O)(O)O)[C@@H](O)[C@H]1O
unit_name: mM
IC50: 0.67

Kindly review the next compound as well.
Look up IC50 of Nc1ncnc2c1ncn2[C@@H]1O[C@H](COP(=O)(O)O)[C@@H](O)[C@H]1O and report it.
2.2

###

- target_entity: human α2β2γ1 complex, CBS4 mutant (I312G) (Homo sapiens, UniProt P54619+P54646, I312G)
- Construct: made in house; host or cells: Escherichia coli
- Sequence (P54619 whole entry I312G): as the sequence (P54619 whole entry L129D/V130D) above, with D129L, D130V, I312G counted along it
- Sequence (P54646 whole entry): as the sequence (P54646 whole entry) above
- Sequence (O43741 whole entry partner): as the sequence (O43741 whole entry partner) above
- assay_method_text: Allosteric activation of CBS4 mutant human α2β2γ1 AMPK complex
- Type: biochemical
- condition_summary: α2β2γ1 CBS4 mutant, 5.0 mM ATP
endpoint: pEC50
Please keep in mind that pEC50 is minus log10 of the molar concentration; only the number is needed.

Give the reported pEC50 for this compound. Nc1ncnc2c1ncn2[C@@H]1O[C@H](COP(=O)(O)O)[C@@H](O)[C@H]1O [AMP]
3.55
